All figures here come from paper PMC11480844.

B1: H2-Kb / Ed28 (parent complex)
chain 1: AQSVTQPDARVTVSEGASLQLRCKYSYFGTPYLFWYVQYPRQGLQLLLKYYPGDPVVQGVNGFEAEFSKSNSSFHLRKASVHWSDWAVYFCAVSPGSGGKLTLGAGTRLQVNL
chain 2: DSGVVQSPRHIIKEKGGRSVLTCIPISGHSNVVWYQQTLGKELKFLIQHYEKVERDKGFLPSRFSVQQFDDYHSEMNMSALELEDSAMYFCASSPRASDYTFGSGTRLLVI
chain 3: not shown
chain 4: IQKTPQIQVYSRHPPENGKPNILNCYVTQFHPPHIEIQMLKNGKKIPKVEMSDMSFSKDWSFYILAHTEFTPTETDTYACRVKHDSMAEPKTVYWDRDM
chain 5: SIINFEKL

# Variants of: B1
# assayRemarks: % of reporter cells activated (NFAT-GFP), raw; further: test concentration or dose not given here
observable: ratio to parent

Guide cases for ratio to parent, answers given:
>>> reportedmeasurement("chain 5 S1H")
1
>>> reportedmeasurement("chain 5 I2T")
1.34
>>> reportedmeasurement("chain 5 E6L")
0.014
>>> reportedmeasurement("chain 5 E6K")
0.702
>>> reportedmeasurement("chain 5 N4W")
0.00775

I: chain 5 S1Q
II: chain 5 N4T
III: chain 5 K7S
IV: chain 5 I2V
QUERY: # sort list by recorded ratio to parent, greatest to least Thanks in advance for listing the labels in the requested order.
RESULT: IV, I, III, II

a: chain 5 S1V
b: chain 5 N4A
c: chain 5 E6C
d: chain 5 E6A
e: chain 5 I3N
QUERY: Hey, quick one: sort these by ratio to parent, largest value first please. Write the labels, ordered according to the request.
RESULT: e, a, d, b, c
(e: 1.16, a: 0.67, d: 0.238, b: 0.0295, c: 0.0175)
